Hello, the source for this data is patent US10047051B2, in case you need it.

- Assay target: CFTR-R117H (Homo sapiens, UniProt P13569, R117H)
- Construct: expressed in transfected cells
- Sequence (P13569 whole entry R117H): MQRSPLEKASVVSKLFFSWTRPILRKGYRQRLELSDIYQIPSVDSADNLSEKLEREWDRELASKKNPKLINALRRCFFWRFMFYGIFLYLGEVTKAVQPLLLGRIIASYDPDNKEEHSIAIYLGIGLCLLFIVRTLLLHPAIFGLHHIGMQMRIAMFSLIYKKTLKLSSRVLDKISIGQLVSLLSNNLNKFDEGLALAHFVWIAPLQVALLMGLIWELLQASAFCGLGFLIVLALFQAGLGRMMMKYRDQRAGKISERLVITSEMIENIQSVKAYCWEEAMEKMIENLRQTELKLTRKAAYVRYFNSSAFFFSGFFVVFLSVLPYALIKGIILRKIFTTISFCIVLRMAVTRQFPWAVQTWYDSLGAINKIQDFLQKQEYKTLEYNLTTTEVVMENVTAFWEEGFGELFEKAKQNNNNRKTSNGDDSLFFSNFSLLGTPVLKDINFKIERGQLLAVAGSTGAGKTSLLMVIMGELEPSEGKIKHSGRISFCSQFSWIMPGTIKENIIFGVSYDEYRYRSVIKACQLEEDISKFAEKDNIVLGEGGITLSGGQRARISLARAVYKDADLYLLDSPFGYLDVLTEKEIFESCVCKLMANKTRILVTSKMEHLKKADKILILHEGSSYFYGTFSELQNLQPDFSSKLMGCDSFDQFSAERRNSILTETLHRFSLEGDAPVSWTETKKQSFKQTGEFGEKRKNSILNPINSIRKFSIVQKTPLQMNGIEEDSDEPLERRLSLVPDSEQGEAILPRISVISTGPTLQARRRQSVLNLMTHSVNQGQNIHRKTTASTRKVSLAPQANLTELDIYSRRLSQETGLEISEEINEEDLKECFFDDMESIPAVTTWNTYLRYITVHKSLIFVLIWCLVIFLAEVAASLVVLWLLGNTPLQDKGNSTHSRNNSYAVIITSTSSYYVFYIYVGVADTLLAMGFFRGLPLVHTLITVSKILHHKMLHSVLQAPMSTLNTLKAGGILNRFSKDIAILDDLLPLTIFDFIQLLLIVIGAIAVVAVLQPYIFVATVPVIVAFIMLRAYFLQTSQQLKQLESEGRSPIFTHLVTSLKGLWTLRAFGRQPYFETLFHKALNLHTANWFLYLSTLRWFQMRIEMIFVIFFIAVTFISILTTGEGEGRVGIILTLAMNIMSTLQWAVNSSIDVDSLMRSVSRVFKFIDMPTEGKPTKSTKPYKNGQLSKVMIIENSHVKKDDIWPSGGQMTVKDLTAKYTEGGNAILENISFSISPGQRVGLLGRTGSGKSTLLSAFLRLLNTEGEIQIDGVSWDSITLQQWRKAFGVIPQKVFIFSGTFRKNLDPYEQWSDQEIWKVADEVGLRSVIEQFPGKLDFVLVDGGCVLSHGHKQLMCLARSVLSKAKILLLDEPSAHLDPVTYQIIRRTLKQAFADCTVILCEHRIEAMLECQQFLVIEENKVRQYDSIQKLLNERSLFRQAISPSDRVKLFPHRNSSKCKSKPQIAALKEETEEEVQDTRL
- Experiment: YFP-halide influx assay for the CFTR-R117H
- Assay type: cell-based
Observation type: % Activation (%)

[[record]]
molecule = "Nc1cc(S(=O)(=O)c2ccc(OC(F)(F)F)cc2)cnc1C(=O)Nc1cc[nH]n1"
assay_target = "CFTR-R117H (Homo sapiens, UniProt P13569, R117H)"
measured = 74.2

[[record]]
molecule = "Nc1cc(S(=O)(=O)c2ccc(OC(F)(F)F)cc2)cnc1C(=O)NCC(O)C(F)(F)F (centres unmarked)"
assay_target = "CFTR-R117H (Homo sapiens, UniProt P13569, R117H)"
measured = 95.7

[[record]]
molecule = "Nc1cc(S(=O)(=O)c2ccc(OC(F)(F)F)cc2)cnc1C(=O)N1CC(O)(C(F)(F)F)C1"
assay_target = "CFTR-R117H (Homo sapiens, UniProt P13569, R117H)"
measured = 103.1

[[record]]
molecule = "Nc1cc(S(=O)(=O)c2ccc(C(F)(F)F)cc2)cnc1C(=O)N1CC(OCC(F)F)C1"
assay_target = "CFTR-R117H (Homo sapiens, UniProt P13569, R117H)"
measured = 91.3

[[record]]
molecule = "Nc1cc(S(=O)(=O)c2ccc(F)cc2)c(-c2ccc(F)cc2)nc1C(=O)NC[C@@H](O)C(F)(F)F"
assay_target = "CFTR-R117H (Homo sapiens, UniProt P13569, R117H)"
measured = 126.0

[[record]]
molecule = "COC[C@H](O)CNC(=O)c1ncc(S(=O)(=O)c2ccccc2OC(F)(F)F)cc1N"
assay_target = "CFTR-R117H (Homo sapiens, UniProt P13569, R117H)"
measured = 103.7

[[record]]
molecule = "Nc1cc(S(=O)(=O)c2ccc(C(F)(F)F)cc2)cnc1C(=O)N1CC(F)(F)C1"
assay_target = "CFTR-R117H (Homo sapiens, UniProt P13569, R117H)"
measured = 87.8

[[record]]
molecule = "Nc1cc(S(=O)(=O)c2ccc(OC(F)(F)F)cc2)cnc1C(=O)N[C@@H]1COCC[C@@H]1O (racemic)"
assay_target = "CFTR-R117H (Homo sapiens, UniProt P13569, R117H)"
measured = 87.1

[[record]]
molecule = "Nc1cc(S(=O)(=O)c2ccccc2OC(F)(F)F)cnc1C(=O)NCCO"
assay_target = "CFTR-R117H (Homo sapiens, UniProt P13569, R117H)"
measured = 98.4

[[record]]
molecule = "CC(C)NC(=O)CNC(=O)c1ncc(S(=O)(=O)c2ccc(OC(F)(F)F)cc2)cc1N"
assay_target = "CFTR-R117H (Homo sapiens, UniProt P13569, R117H)"
measured = 72.8

[[record]]
molecule = "CCC1(F)CN(C(=O)c2ncc(S(=O)(=O)c3ccc(OC(F)(F)F)cc3)cc2N)C1"
assay_target = "CFTR-R117H (Homo sapiens, UniProt P13569, R117H)"
measured = 77.6

[[record]]
molecule = "Nc1cc(S(=O)(=O)c2ccc(F)cc2)cnc1C(=O)NC[C@H](O)C(F)(F)F"
assay_target = "CFTR-R117H (Homo sapiens, UniProt P13569, R117H)"
measured = 91.3

[[record]]
molecule = "CC(C)(O)CNC(=O)c1ncc(S(=O)(=O)c2ccc(OC(F)(F)F)cc2)cc1N"
assay_target = "CFTR-R117H (Homo sapiens, UniProt P13569, R117H)"
measured = 98.5

[[record]]
molecule = "CC(O)(CNC(=O)c1ncc(S(=O)(=O)c2ccc(OC(F)(F)F)cc2)cc1N)C(F)(F)F (centres unmarked)"
assay_target = "CFTR-R117H (Homo sapiens, UniProt P13569, R117H)"
measured = 76.0

[[record]]
molecule = "C[C@H](O)CNC(=O)c1ncc(S(=O)(=O)c2ccc(C(F)(F)F)cc2)cc1N"
assay_target = "CFTR-R117H (Homo sapiens, UniProt P13569, R117H)"
measured = 97.3

[[record]]
molecule = "CC(C)(C)C(O)CNC(=O)c1ncc(S(=O)(=O)c2ccc(OC(F)(F)F)cc2)cc1N (centres unmarked)"
assay_target = "CFTR-R117H (Homo sapiens, UniProt P13569, R117H)"
measured = 112.0

[[record]]
molecule = "Nc1cc(S(=O)(=O)c2ccc(OC(F)(F)F)cc2)cnc1C(=O)NCCO"
assay_target = "CFTR-R117H (Homo sapiens, UniProt P13569, R117H)"
measured = 89.7

